Reference source: patent US20250179057A1

assaySummary: Hepatocyte stability, balb/c mouse
Format: in vitro ADME
conditionDetails: BALB/c, mouse, hepatocytes, 0.5 million cells/ml, read-out: CLint (mL/min/kg)
Structures can show the parent of a compound that is named as a salt.
quantityMeasured: CLint scaled at 2 μM (mL/min/kg)
Provide only the numeric value, understood in mL/min/kg.

Example cases with answers are listed next.
compound	CLint scaled at 2 μM (mL/min/kg)
CCN(C)Cc1c(Cc2cccc(NS(=O)(=O)NC)c2F)c(=O)oc2cc(OC(=O)N(C)C)c(F)cc12 [Compound 238]	110
CNS(=O)(=O)Nc1cccc(Cc2c(CN3CCNCC3)c3cc(Cl)c(OC(=O)N(C)C)cc3oc2=O)c1Cl [Compound 256, hydrochloride]	83
CCS(=O)(=O)Nc1cccc(Cc2c(CN3CCNCC3)c3cc(Cl)c(OC(=O)N(C)C)cc3oc2=O)c1Cl [Compound 257, hydrochloride]	79.6
CNS(=O)(=O)Nc1cccc(Cc2c(CN(C)C)c3ccc(OC(=O)N(C)C)cc3oc2=O)c1Cl [Compound 274]	87.1
CNS(=O)(=O)Nc1cccc(Cc2c(CN3CCNCC3)c3ccc(OC(=O)N(C)C)cc3oc2=O)c1Cl [Compound 246, hydrochloride]	60.3

For the next question, use this compound.
Q. Please give the measured CLint scaled at 2 μM for this compound: CCN(C)Cc1c(Cc2cccc(NS(=O)(=O)NC)c2Cl)c(=O)oc2cc(OC(=O)N(C)C)ccc12 [Compound 245]
A. 126
